We begin with IC50 values for Plasmepsin II (Plasmodium falciparum, UniProt P46925), as collected from the published literature.
Just the number in nM, nothing appended.

Problem: Please report the recorded IC50 for CCCN(CCC)C(=O)c1cc(C(=O)N[C@@H](Cc2ccccc2)[C@H](O)CNC(C)(C)c2cncc(OC)c2)cc(N2CCCCC2)c1 .
Result: 190

Problem: Here is the next compound: CCCCCc1ccc(-c2cc(-c3ccc(C(=O)O)cc3)c3c(=O)n(CC4CCC(c5ccccc5)O4)c(N)nc3c2)cc1 (stereo not drawn)
Result: 740

Problem: And then CCCCCc1ccc(C(=O)N(CCN(CCCC)CCCC)Cc2ccc(-c3ccncc3)cc2)cc1 , what is it?
Result: 212

Problem: Another compound: O=C(Cn1c(-c2ccccn2)nc2ccccc21)c1ccccc1[N+](=O)[O-]
Result: 30600

Problem: Also CCCCCc1ccc(C(=O)N(CCN(CCC)CCC)Cc2ccc(-c3ccc4c(c3)OCO4)cc2)cc1 , if possible.
Result: 531

Problem: Can you check CCCCCc1ccc(C(=O)N(CCN(CC)CCN(CC)CC)Cc2ccc(-c3ccc4c(c3)OCO4)cc2)cc1 next?
Result: 439
